I'd be grateful if you could share measured koff for these entries.
- Measurement Target: T1, human MSLN-FL-his protein (human, UniProt Q13421 296-580)
- T1 construct: made in HEK293E cells, purified on nickel column; also called hMSLN-FL-his; human MSLN full-length protein; not shown: His tag
- T1 sequence (Q13421 other isoform, or with tags, fused parts or gaps): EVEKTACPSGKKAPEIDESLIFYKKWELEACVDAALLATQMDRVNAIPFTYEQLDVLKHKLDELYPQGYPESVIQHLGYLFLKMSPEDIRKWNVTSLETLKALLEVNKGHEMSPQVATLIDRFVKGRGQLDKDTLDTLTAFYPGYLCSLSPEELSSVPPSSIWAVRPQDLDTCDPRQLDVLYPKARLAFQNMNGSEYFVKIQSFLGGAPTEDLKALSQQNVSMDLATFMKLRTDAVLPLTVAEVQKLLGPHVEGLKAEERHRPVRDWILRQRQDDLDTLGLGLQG
- Experiment: SPR (Biacore), antibody captured on Protein A chip;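 also: flow cell at 25 °C, antigen injected for 240 s at five concentrations from 200 nM downward, dissociation followed up to 600 s, double-referenced, fitted with Langmuir 1:1 model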
Kindly provide the numeric value in s⁻¹ only, without the unit symbol.

// koff value for S009-F8-5.15 (antibody, human IgG1, kappa, V domains shown, human-murine chimeric antibody, human IgG1/kappa constant regions) VH: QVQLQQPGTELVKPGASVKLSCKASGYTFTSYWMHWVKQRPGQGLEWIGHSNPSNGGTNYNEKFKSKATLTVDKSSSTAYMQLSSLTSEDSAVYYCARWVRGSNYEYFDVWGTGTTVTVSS VL: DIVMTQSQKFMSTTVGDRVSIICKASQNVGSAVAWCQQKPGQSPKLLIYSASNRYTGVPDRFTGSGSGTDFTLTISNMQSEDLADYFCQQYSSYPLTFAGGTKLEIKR : 0.017

// koff value for S009-F8-15.19 (antibody, human IgG1, kappa, V domains shown, human-murine chimeric antibody, human IgG1/kappa constant regions) VH: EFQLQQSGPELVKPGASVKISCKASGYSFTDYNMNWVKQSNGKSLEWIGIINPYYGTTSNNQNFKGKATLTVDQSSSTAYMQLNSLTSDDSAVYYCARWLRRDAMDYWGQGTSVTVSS VL: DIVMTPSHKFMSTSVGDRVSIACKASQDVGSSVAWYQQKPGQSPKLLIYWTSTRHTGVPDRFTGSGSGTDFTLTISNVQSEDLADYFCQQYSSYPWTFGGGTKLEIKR : 0.00724

// koff value for S009-F8-32.3 (antibody, human IgG1, kappa, V domains shown, human-murine chimeric antibody, human IgG1/kappa constant regions) VH: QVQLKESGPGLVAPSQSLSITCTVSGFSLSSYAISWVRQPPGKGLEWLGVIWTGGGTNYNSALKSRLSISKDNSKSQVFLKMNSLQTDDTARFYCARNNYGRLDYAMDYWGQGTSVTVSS VL: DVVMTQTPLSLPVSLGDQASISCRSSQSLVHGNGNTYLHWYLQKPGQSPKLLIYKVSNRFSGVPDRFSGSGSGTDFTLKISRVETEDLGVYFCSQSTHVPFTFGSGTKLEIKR : 0.00331
